Origin of the recorded values: the supplement of paper PMC10567573

Each item that follows carries a reported protein stability index.
B1: MNAT1 (parent)
chain: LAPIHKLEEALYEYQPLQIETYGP

Variants of: B1
Assay: protein stability index of a GFP-peptide fusion (GPS, HEK-293T) (PSI 1-6); higher = more stable;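 also: lentivirally expressed fusions sorted by FACS into six bins by GFP to DsRed ratio, PSI derived from sequencing read proportions per bin multiplied by bin number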
Conditions: c terminus: a fixed tail appended
# answer = number (no unit)

Some variants with recorded protein stability index:
Q: Identify measured protein stability index associated with `G23D`
Ans: 1.3

Q: Identify measured protein stability index associated with `H5A`
Ans: 2.17

Q: Identify measured protein stability index associated with `Y12T`
Ans: 2.24

Q: Identify measured protein stability index associated with `Q18L`
Ans: 1.28

Q: Identify measured protein stability index associated with `L1M`
Ans: 1.87

---
Q: Identify measured protein stability index associated with `P3V`
Ans: 2.7

Q: Identify measured protein stability index associated with `I4M`
Ans: 1.92
